So I've got a bunch of compounds here, and I need their pEC50 values.
# TESTED_SYSTEM: hEP2/Gqs5 (Homo sapiens)
# EXPERIMENTAL_DETAILS: EP2 FLIPR calcium signal study
# MEASUREMENT_CONTEXT: HEK-293(EBNA) cells expressing hEP2/Gqs5; unit inferred
Answers are plain numbers, as −log10 of the molar value.

1. CCC(O)c1ccc(N2C(=O)CC[C@@H]2COCc2ccc(C(=O)O)s2)cc1 (mixture of isomers)    5.74
2. CCCCCCC(O)c1ccc(N2C(=O)CC[C@@H]2COCc2ccc(C(=O)O)s2)cc1 (mixture of isomers)    7.70
3. CCCCC[C@@H](O)c1ccc(N2C(=O)CC[C@@H]2/C=C/Cc2ccc(C(=O)O)s2)cc1 (racemic)    6.65
4. CCCCC(O)c1ccc(N2C(=O)CC[C@@H]2COCc2ccc(C(=O)O)s2)cc1 (mixture of isomers)    6.67
5. CCCCCCC(O)c1ccc(N2C(=O)CC[C@@H]2CCCc2ccc(C(=O)O)s2)cc1 (mixture of isomers)    7.52

Batch: pEC50 for all items listed.
1. CCCC(O)c1ccc(N2C(=O)CC[C@@H]2COCc2ccc(C(=O)O)s2)cc1 (mixture of isomers)
2. CCCCCC(O)c1ccc(N2C(=O)CC[C@@H]2COc2ccc(C(=O)O)cc2)cc1 (mixture of isomers)
3. CCCCCC(O)c1ccc(N2C(=O)CC[C@@H]2CCCc2ccc(C(=O)O)s2)cc1 (mixture of isomers)

1: 6.37; 2: 5.14; 3: 8.30

====

So I've got a bunch of compounds here, and I need their EC50 values.
# TESTED_SYSTEM: hEP4/Gqs5 (Homo sapiens)
# EXPERIMENTAL_DETAILS: EP4 FLIPR calcium signal study
# MEASUREMENT_CONTEXT: HEK-293(EBNA) cells expressing hEP4/Gqs5; unit inferred

1) CCCCCCC(O)c1ccc(N2C(=O)CC[C@@H]2CCCc2ccc(C(=O)O)s2)cc1 (mixture of isomers)    > 10 µM

State its EC50: CCC(O)c1ccc(N2C(=O)CC[C@@H]2COCc2ccc(C(=O)O)s2)cc1 (mixture of isomers)
> 10 µM

====

So I've got a bunch of molecules here, and I need their pEC50 values.
# TESTED_SYSTEM: EP2 (Homo sapiens, UniProt P43116)
# Sequence (P43116 whole entry): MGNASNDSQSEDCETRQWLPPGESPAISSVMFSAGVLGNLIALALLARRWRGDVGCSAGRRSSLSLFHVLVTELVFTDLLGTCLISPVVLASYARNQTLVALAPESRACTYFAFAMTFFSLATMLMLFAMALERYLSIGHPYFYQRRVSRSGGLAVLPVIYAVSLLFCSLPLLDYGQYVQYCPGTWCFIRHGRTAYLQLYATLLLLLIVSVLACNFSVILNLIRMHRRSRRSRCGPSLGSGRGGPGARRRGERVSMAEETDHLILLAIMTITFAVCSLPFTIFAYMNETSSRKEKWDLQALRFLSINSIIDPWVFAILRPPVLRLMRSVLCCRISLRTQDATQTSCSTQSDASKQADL
# EXPERIMENTAL_DETAILS: EP2 cAMP assay
# MEASUREMENT_CONTEXT: unit inferred
Give bare numbers, as −log10 of the molar value.

Here is how some molecules turned out for pEC50.
1) CCCCC(O)c1ccc(N2C(=O)CC[C@@H]2COCc2ccc(C(=O)O)s2)cc1 (mixture of isomers)    8.10
2) CCCCCCC(O)c1ccc(N2C(=O)CC[C@@H]2COCc2ccc(C(=O)O)s2)cc1 (mixture of isomers)    8.82
3) CCCCCC(O)c1ccc(N2C(=O)CC[C@@H]2CCCc2ccc(C(=O)O)s2)cc1 (mixture of isomers)    9.26

State its pEC50: CCCCCC(O)c1ccc(N2C(=O)CC[C@@H]2COCc2cccc(C(=O)O)c2)cc1 (mixture of isomers)
6.29

====

# TESTED_SYSTEM: EP4 receptors (Homo sapiens, UniProt P35408)
# Construct: expressed in transfected cells; host or cells: HEK-293
# Sequence (P35408 whole entry): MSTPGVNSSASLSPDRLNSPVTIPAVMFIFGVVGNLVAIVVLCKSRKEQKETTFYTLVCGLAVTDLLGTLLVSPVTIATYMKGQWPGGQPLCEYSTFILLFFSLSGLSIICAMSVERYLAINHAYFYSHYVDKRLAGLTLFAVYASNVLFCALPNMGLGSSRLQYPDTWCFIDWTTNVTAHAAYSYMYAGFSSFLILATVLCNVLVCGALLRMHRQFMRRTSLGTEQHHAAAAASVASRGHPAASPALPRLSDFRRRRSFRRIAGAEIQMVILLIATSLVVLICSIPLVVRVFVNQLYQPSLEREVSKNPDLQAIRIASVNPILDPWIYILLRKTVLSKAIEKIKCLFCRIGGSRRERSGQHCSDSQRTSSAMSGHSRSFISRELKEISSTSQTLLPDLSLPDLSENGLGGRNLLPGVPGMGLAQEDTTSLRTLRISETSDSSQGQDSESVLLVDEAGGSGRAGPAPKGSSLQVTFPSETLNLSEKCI
# EXPERIMENTAL_DETAILS: EP4 radioligand binding (Ki) vs [3H]PGE2
# MEASUREMENT_CONTEXT: unit inferred
So I've got a bunch of molecules here, and I need their Ki values.

Here is how some molecules turned out for Ki.
1. CCCCC[C@@H](O)c1ccc(N2C(=O)CC[C@@H]2/C=C/Cc2ccc(C(=O)O)s2)cc1 (racemic)    > 10 µM
2. CCCCCC(O)c1ccc(N2C(=O)CC[C@@H]2COc2ccc(C(=O)O)cc2)cc1 (mixture of isomers)    8.75 µM

Now look at this entry.
State its Ki: CCCCCCC(O)c1ccc(N2C(=O)CC[C@@H]2COCc2ccc(C(=O)O)s2)cc1 (mixture of isomers)
> 10 µM

Each recorded value in this set is attributed to patent US7592364B2.
